# System: 556581-035-R-J1-PDC complex spheroid viability
# Assay Info: Anticancer human tumor 556581-035-R-J1-PDC patient-derived ovarian carcinoma cell line growth inhibition
# Settings: second compound 10 µM; first compound 0.0949 µM; stronger effect = lower value
// map viability, T/C to label using low end: < 40%; middle: ≥ 40% and < 50%; high end: ≥ 50%

Answered cases to consult:
Hey, which category is Nc1ncn(C2CC(O)C(CO)S2)c(=O)n1 (stereo not given) + NC1CCC(NC2CC2c2ccccc2)CC1 in, do you know?
middle

Hey, which category is Nc1ccn(C2OC(CO)C(O)C2(F)F)c(=O)n1 (stereo not given) + NC1CCC(NC2CC2c2ccccc2)CC1 in, do you know?
low end

Hey, which category is COc1cc(C2c3cc4c(cc3C(OC3OC5COC(C)OC5C(O)C3O)C3COC(=O)C23)OCO4)cc(OC)c1O (stereo not given) + NC1CCC(NC2CC2c2ccccc2)CC1 in, do you know?
high end

Hey, which category is Nc1ccccc1NC(=O)c1ccc(CNC(=O)OCc2cccnc2)cc1 + NC1CCC(NC2CC2c2ccccc2)CC1 in, do you know?
low end

Hey, which category is CCc1c2c(nc3ccc(O)cc13)-c1cc3c(c(=O)n1C2)COC(=O)[C@]3(O)CC + NC1CC1c1ccc(-c2cccc(O)c2)cc1 in, do you know?
low end

Others:
Hey, which category is NS(=O)(=O)OCC1CC(n2ccc3c(NC4CCc5ccccc54)ncnc32)CC1O (stereo not given) + NC1CCC(NC2CC2c2ccccc2)CC1 in, do you know?
high end

Hey, which category is O=C(C=Cc1cccc(S(=O)(=O)Nc2ccccc2)c1)NO + NC1CC1c1ccc(-c2cccc(O)c2)cc1 in, do you know?
middle

###

# System: 556581-035-R-J1-PDC complex spheroid viability
# Assay Info: Anticancer human tumor 556581-035-R-J1-PDC cell line growth inhibition; active = viability on the fitted dose curve at most 10% of control; inactive = the rest;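 also: spheroids exposed to agents for seven days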
# Settings: second compound 3.16 µM; first compound 0.1 µM
Log the outcome using a class from 1 (active), -1 (inactive)

What classification did CC(C)CC(NC(=O)CNC(=O)c1cc(Cl)ccc1Cl)B1OC(=O)CC(CC(=O)O)(C(=O)O)O1 (configuration not stated) + NC1CCC(NC2CC2c2ccccc2)CC1 end up with in this test?
1

What classification did Nc1ncn(C2CC(O)C(CO)O2)c(=O)n1 (configuration not stated) + NC1CCC(NC2CC2c2ccccc2)CC1 end up with in this test?
-1

What classification did CC(C)CC(NC(=O)C(Cc1ccccc1)NC(=O)c1cnccn1)B(O)O (configuration not stated) + NC1CCC(NC2CC2c2ccccc2)CC1 end up with in this test?
1

What classification did CC1(C)CCC(CN2CCN(c3ccc(C(=O)NS(=O)(=O)c4ccc(NCC5CCOCC5)c([N+](=O)[O-])c4)c(Oc4cnc5[nH]ccc5c4)c3)CC2)=C(c2ccc(Cl)cc2)C1 + NC1CCC(NC2CC2c2ccccc2)CC1 end up with in this test?
-1

What classification did CC(C)CC(NC(=O)CNC(=O)c1cc(Cl)ccc1Cl)B1OC(=O)CC(CC(=O)O)(C(=O)O)O1 (configuration not stated) + NC1CC1c1ccc(-c2cccc(O)c2)cc1 end up with in this test?
1

Others:
What classification did COc1cc(Nc2ncc3c(n2)-c2ccc(Cl)cc2C(c2c(F)cccc2OC)=NC3)ccc1C(=O)O + NC1CCC(NC2CC2c2ccccc2)CC1 end up with in this test?
-1

What classification did COc1cc(Nc2ncc3c(n2)-c2ccc(Cl)cc2C(c2c(F)cccc2OC)=NC3)ccc1C(=O)O + NC1CC1c1ccc(-c2cccc(O)c2)cc1 end up with in this test?
-1

What classification did Nc1ncn(C2CC(O)C(CO)O2)c(=O)n1 (configuration not stated) + NC1CC1c1ccc(-c2cccc(O)c2)cc1 end up with in this test?
-1

What classification did CC1COCCN1c1cc(-c2ccnn2C)c2ccnc(-c3ccn[nH]3)c2n1 (configuration not stated) + NC1CC1c1ccc(-c2cccc(O)c2)cc1 end up with in this test?
-1

What classification did O=C(c1cc(Cc2n[nH]c(=O)c3ccccc23)ccc1F)N1CCN(C(=O)C2CC2)CC1 + NC1CCC(NC2CC2c2ccccc2)CC1 end up with in this test?
-1

What classification did O=C(C=Cn1cnc(-c2cc(C(F)(F)F)cc(C(F)(F)F)c2)n1)NNc1cnccn1 + NC1CC1c1ccc(-c2cccc(O)c2)cc1 end up with in this test?
-1

What classification did Cn1ncnc1C1c2n[nH]c(=O)c3cc(F)cc(c23)NC1c1ccc(F)cc1 (configuration not stated) + NC1CCC(NC2CC2c2ccccc2)CC1 end up with in this test?
-1

###

# System: 556581-035-R-J1-PDC complex spheroid viability
# Assay Info: Anticancer human tumor 556581-035-R-J1-PDC cell line growth inhibition;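 also: spheroids exposed to agents for seven days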;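 as to viability, T/C: 100% = DMSO vehicle control wells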
# Settings: second compound 1 µM; first compound 0.01 µM; stronger effect = lower value
# Excerpt: Multicellular complex tumor spheroid response to LSD1 Inhibitor Iadademstat in combination with a variety of drugs and investigational agents in selected tumor cell lines The current study was undertaken to assess response to LSD1 inhibitors in combination with standard-of-care drugs and investigational agents in solid tumor complex spheroid models as well as in the K-562 leukemia. […] Compounds. […] If the clinical Cmax for an agent had not been determined, the highest concentration tested was 10 microM. […]
Value Type: viability, T/C (%)
Enter your answer as a number in %; do not include the unit.

# compound CC1COCCN1c1cc(-c2ccnn2C)c2ccnc(-c3ccn[nH]3)c2n1 (stereo not drawn) + NC1CCC(NC2CC2c2ccccc2)CC1 ; its viability, T/C = 59.7

Others:
# compound CC[C@@]1(O)C(=O)OCc2c1cc1n(c2=O)Cc2cc3c(CN(C)C)c(O)ccc3nc2-1 + NC1CC1c1ccc(-c2cccc(O)c2)cc1 ; its viability, T/C = 30.3

# compound CC[C@@]1(O)C(=O)OCc2c1cc1n(c2=O)Cc2cc3c(CN(C)C)c(O)ccc3nc2-1 + NC1CCC(NC2CC2c2ccccc2)CC1 ; its viability, T/C = 58

###

# System: 556581-035-R-J1-PDC complex spheroid viability
# Assay Info: Anticancer human tumor 556581-035-R-J1-PDC cell line growth inhibition;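 also: spheroids exposed to agents for seven days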
# Settings: curve of first compound; second compound 3.16 µM
Value Type: IC50 (nM)
Enter your answer as a number in nM; do not include the unit.

Look over these answered cases.
# molecule CC1COCCN1c1cc(-c2ccnn2C)c2ccnc(-c3ccn[nH]3)c2n1 (stereo not drawn) + NC1CC1c1ccc(-c2cccc(O)c2)cc1 ; its IC50 = 5.31

# molecule COc1ccc([C@@H](O)c2cc(-c3ncnc4cc(N5CCOCC5)ccc34)c(F)cc2Cl)nn1 + NC1CC1c1ccc(-c2cccc(O)c2)cc1 ; its IC50 = 621

# molecule CC[C@@]1(O)C(=O)OCc2c1cc1n(c2=O)Cc2cc3c(CN(C)C)c(O)ccc3nc2-1 + NC1CC1c1ccc(-c2cccc(O)c2)cc1 ; its IC50 = 6.11

Others:
# molecule COc1cc(C2c3cc4c(cc3C(OC3OC5COC(C)OC5C(O)C3O)C3COC(=O)C23)OCO4)cc(OC)c1O (stereo not drawn) + NC1CCC(NC2CC2c2ccccc2)CC1 ; its IC50 = 501

###

# IC50 per record follows
# Tested on: 556581-035-R-J1-PDC complex spheroid viability
# Assay Info: Anticancer human tumor 556581-035-R-J1-PDC cell line growth inhibition;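 also: spheroids exposed to agents for seven days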
# Settings: curve of first compound; second compound 10 µM
Enter your answer as a number in µM; do not include the unit.

# molecule COc1ccc([C@@H](O)c2cc(-c3ncnc4cc(N5CCOCC5)ccc34)c(F)cc2Cl)nn1 + NC1CCC(NC2CC2c2ccccc2)CC1 ; its IC50 = 0.639

# molecule Nc1ccccc1NC(=O)c1ccc(CNC(=O)OCc2cccnc2)cc1 + NC1CC1c1ccc(-c2cccc(O)c2)cc1 ; its IC50 = 0.094

# molecule Nc1ncn(C2CC(O)C(CO)S2)c(=O)n1 (stereo not given) + NC1CCC(NC2CC2c2ccccc2)CC1 ; its IC50 = 0.0764

Others:
# molecule Nc1ccn(C2OC(CO)C(O)C2(F)F)c(=O)n1 (stereo not given) + NC1CCC(NC2CC2c2ccccc2)CC1 ; its IC50 = 0.00198

# molecule COc1ccc([C@@H](O)c2cc(-c3ncnc4cc(N5CCOCC5)ccc34)c(F)cc2Cl)nn1 + NC1CC1c1ccc(-c2cccc(O)c2)cc1 ; its IC50 = 1.05

# molecule O=C(c1cc(Cc2n[nH]c(=O)c3ccccc23)ccc1F)N1CCN(C(=O)C2CC2)CC1 + NC1CC1c1ccc(-c2cccc(O)c2)cc1 ; its IC50 = 9.28

###

# Test system: 556581-035-R-J1-PDC complex spheroid viability
# Assay Info: Anticancer human tumor 556581-035-R-J1-PDC cell line growth inhibition;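 also: spheroids exposed to agents for seven days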
# Settings: curve of first compound; second compound 1 µM
# Description: Multicellular complex tumor spheroid response to LSD1 Inhibitor Iadademstat in combination with a variety of drugs and investigational agents in selected tumor cell lines The current study was undertaken to assess response to LSD1 inhibitors in combination with standard-of-care drugs and investigational agents in solid tumor complex spheroid models as well as in the K-562 leukemia. […] Compounds. […] If the clinical Cmax for an agent had not been determined, the highest concentration tested was 10 microM. […]
Value Type: IC50

Look over these answered cases.
Item: Cn1ncnc1C1c2n[nH]c(=O)c3cc(F)cc(c23)NC1c1ccc(F)cc1 (stereo not given) + NC1CC1c1ccc(-c2cccc(O)c2)cc1 | System: 556581-035-R-J1-PDC complex spheroid viability | IC50: > 100 nM

Item: Nc1ncn(C2CC(O)C(CO)O2)c(=O)n1 (stereo not given) + NC1CC1c1ccc(-c2cccc(O)c2)cc1 | System: 556581-035-R-J1-PDC complex spheroid viability | IC50: > 1000 nM

Item: CC1COCCN1c1cc(C2(S(C)(=N)=O)CC2)nc(-c2ccnc3[nH]ccc23)n1 (stereo not given) + NC1CCC(NC2CC2c2ccccc2)CC1 | System: 556581-035-R-J1-PDC complex spheroid viability | IC50: > 10000 nM

Item: CC(C)CC(NC(=O)C(Cc1ccccc1)NC(=O)c1cnccn1)B(O)O (stereo not given) + NC1CC1c1ccc(-c2cccc(O)c2)cc1 | System: 556581-035-R-J1-PDC complex spheroid viability | IC50: < 0.316 nM

Others:
Item: CC(C)c1c(-c2ccccc2)nc2c(C#N)c[nH]n2c1=O + NC1CCC(NC2CC2c2ccccc2)CC1 | System: 556581-035-R-J1-PDC complex spheroid viability | IC50: > 10000 nM

These measurements were taken from PubChem BioAssay AID1918938.
